testedTarget: recombinant α1β2γ2 GABAA receptors (Homo sapiens, UniProt P14867+P47870)
Construct: expressed in transfected cells
Sequence (P14867 28-456): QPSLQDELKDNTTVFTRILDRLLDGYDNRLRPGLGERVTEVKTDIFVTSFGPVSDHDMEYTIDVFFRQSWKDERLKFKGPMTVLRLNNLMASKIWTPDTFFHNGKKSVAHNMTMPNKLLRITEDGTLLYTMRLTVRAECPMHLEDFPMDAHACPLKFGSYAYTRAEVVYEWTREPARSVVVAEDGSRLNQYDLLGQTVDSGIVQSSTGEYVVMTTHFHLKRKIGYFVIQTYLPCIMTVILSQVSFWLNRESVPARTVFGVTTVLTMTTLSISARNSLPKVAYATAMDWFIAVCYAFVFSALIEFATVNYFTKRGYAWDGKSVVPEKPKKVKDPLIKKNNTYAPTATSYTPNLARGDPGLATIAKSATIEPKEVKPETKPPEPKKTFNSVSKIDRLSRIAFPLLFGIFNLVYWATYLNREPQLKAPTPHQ
Sequence (P47870 25-512 limits assumed): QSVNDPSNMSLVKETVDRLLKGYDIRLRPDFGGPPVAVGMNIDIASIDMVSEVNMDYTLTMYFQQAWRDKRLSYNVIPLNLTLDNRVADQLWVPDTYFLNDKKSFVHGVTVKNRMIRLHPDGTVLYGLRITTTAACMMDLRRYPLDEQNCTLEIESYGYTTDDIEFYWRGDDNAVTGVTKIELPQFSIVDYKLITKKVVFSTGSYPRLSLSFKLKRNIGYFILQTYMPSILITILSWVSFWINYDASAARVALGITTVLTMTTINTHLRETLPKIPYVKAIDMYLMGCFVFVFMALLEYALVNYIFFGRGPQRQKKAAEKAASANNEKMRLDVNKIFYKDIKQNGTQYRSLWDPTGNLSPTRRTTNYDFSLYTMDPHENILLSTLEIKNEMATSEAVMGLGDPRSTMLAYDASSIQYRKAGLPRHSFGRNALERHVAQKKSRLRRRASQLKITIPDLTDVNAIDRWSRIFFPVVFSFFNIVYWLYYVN
Sequence (P18507 40-475 partner): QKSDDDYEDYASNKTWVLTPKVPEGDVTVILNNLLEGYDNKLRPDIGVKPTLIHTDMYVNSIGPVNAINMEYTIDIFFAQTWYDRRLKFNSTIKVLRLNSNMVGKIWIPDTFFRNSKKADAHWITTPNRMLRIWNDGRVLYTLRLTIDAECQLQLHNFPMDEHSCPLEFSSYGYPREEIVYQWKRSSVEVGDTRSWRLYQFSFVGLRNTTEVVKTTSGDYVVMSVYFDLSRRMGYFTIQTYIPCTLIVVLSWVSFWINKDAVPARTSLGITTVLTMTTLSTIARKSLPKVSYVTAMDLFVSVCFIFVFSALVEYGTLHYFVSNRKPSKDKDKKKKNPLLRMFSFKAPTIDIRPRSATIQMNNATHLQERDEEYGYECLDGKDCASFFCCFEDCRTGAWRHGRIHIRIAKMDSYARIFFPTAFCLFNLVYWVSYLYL
method: Patch clamp electrophysiology, QPatch, LTK cells
Assay type: cell-based
studyConditions: 10 μM test article, GABA EC20 = 2 μM, read-out: GABA (α1β2γ2) Qpatch in Ltk, % efficacy at 10 μM
reportedEndpoint: Emax at 10 µM

Illustrative cases are given below, each with its answer.
| compound | Emax at 10 µM |
| --- | --- |
| Cc1nnn(CC(=O)[C@H]2CC[C@H]3[C@@H]4CC[C@H]5C[C@](C)(O)CC[C@@H]5[C@H]4CC[C@]23C)n1 [SB-5] | 100 to 500% |
| C[C@]12CC[C@H]3[C@@H](CC[C@H]4C[C@@](O)(CF)CC[C@@H]43)[C@@H]1CC[C@@H]2C(=O)Cn1cnnn1 [SD-4] | 100 to 500% |
| Cc1cn(CC(=O)[C@H]2CC[C@H]3[C@@H]4C[C@@H](F)[C@H]5C[C@](C)(O)CC[C@@H]5[C@H]4CC[C@]23C)nn1 [SV-8] | > 500% |

Then this compound:
Ask: Tell me the measured Emax at 10 µM of C[C@@]1(O)CC[C@@H]2[C@H]3CC[C@]4(C)[C@@H](C(=O)Cn5cnnn5)CC[C@H]4[C@@H]3C[C@@H](F)[C@H]2C1 [SV-4] , please.
Result: 100 to 500%
